// data source = patent US12486265B2

# procedure summary: Pharmacokinetic study in male SD rats
# Format: in vivo
# assay conditions: rat, plasma, IV 5 mg/kg
reported metric: Tmax (min)
Numbers only, in min.

The recorded Tmax for entry "CCCC[C@](C)(CNC(C)=O)Nc1nc(N)nc2cc(C(=O)N(C)C)cnc12" equals 4.98

###

Would you kindly list CC50 at 24 h for each of these molecules?
# procedure summary: Cell activity detection (Celltiter-Glo) in HEK-Blue hTLR8 cells
# Assay type: cell-based
# assay conditions: human
# Method: [drawing 45] per well; • (2) HEK-Blue™ hTLR7/8 cells were digested separately, counted, and the cells at 5.0×10^4 cells per well were added to a 96-well cell culture plate containing compounds; (3) The cells added with the compound were placed in a 5% CO2 incubator at 37° C. for 24 hours; • (4) Compound activity detection: took 20 µl/well cell culture supernatant and added it to 96-well plate containing 180 μl QUANTI-BLUE™ reagent. […]

Reference set, count: 2
{"molecule": "CCOCc1nc2c(N)nc3ccccc3c2n1CC(C)(C)O [Compound R848, reference compound]", "assay result": "> 71 µM"}
{"molecule": "CCCC[C@](C)(CNC(C)=O)Nc1nc(N)nc2cc(C(=O)N(C)C)cnc12", "assay result": "> 33 µM"}

For every item in the list below, what is its measured CC50 at 24 h?
1. CCCC[C@](C)(CNC(C)=O)Nc1nc(N)nc2cc(C(=O)N3CC4(CCN(c5ccccc5)CC4)C3)cnc12
2. CCCC[C@](C)(CNC(C)=O)Nc1nc(N)nc2cc(NC3CC3)cnc12
3. CCCC[C@](C)(CNC(C)=O)Nc1nc(N)nc2cc(CC)cnc12 [Compound X, reference compound]
4. CCCC[C@](C)(CNC(C)=O)Nc1nc(N)nc2cc(C(C)=O)cnc12

A:
["> 33 µM", "> 33 µM", "> 33 µM", "> 33 µM"]

###

# target entity: UniProt:Q9NR97
# Sequence (Q9NR97 27-1041): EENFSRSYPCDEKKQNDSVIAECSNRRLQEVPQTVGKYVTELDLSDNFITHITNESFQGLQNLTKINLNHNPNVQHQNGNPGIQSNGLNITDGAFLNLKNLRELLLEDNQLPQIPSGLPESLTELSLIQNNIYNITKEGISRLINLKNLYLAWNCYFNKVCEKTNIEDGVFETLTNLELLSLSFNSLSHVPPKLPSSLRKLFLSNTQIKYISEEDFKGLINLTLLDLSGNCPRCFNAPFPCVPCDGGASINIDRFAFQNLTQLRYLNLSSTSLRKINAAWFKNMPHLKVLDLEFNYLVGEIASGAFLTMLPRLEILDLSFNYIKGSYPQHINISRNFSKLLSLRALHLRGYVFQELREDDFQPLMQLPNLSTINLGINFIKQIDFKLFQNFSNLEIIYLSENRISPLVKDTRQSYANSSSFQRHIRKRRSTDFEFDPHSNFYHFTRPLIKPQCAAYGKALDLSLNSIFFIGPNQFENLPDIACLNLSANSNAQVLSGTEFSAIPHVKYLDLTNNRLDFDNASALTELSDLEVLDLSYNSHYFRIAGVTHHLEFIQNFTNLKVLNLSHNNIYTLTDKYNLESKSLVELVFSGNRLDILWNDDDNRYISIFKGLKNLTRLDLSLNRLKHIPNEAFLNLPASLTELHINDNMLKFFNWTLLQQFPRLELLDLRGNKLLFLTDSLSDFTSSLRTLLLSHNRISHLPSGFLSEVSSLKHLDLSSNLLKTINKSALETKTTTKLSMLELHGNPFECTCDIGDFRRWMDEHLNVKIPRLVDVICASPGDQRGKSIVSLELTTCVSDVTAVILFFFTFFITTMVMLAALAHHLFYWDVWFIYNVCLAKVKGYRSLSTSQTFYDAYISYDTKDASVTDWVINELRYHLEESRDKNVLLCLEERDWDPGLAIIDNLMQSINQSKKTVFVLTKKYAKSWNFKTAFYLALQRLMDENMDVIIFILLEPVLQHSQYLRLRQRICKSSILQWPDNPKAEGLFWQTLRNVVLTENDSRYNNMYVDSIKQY
# procedure summary: hTLR8 receptor binding activity in vitro (HEK-Blue hTLR8 SEAP reporter)
# assay conditions: HEK-Blue hTLR8 cells, 24 hours, SEAP OD650
reported metric: pEC50
Give bare numbers, as −log10 of the molar value.

For every item in the list below, what is its measured pEC50?
1. CCCC[C@](C)(CNC(C)=O)Nc1nc(N)nc2cc(CC)cnc12 [Compound X, reference compound]
2. CCCC[C@](C)(CNC(C)=O)Nc1nc(N)nc2cc(C(C)=O)cnc12

A:
[7.40, 7.31]

For every item in the list below, what is its measured pEC50?
1. CCCC[C@](C)(CNC(C)=O)Nc1nc(N)nc2cc(C(=O)N3CC4(CCN(c5ccccc5)CC4)C3)cnc12
2. CCCC[C@](C)(CNC(C)=O)Nc1nc(N)nc2cc(NC3CC3)cnc12

A:
6.68
7.54

###

Would you kindly list Kp at 1 h for each of these compounds?
# procedure summary: Liver-blood ratio study in male SD rats
# Type: in vivo
# assay conditions: rat, liver / plasma, single oral administration, time point 1 h
Give bare numbers.

{"compound": "CCCC[C@](C)(CNC(C)=O)Nc1nc(N)nc2cc(C(=O)N(C)C)cnc12", "assay result": 12.3}

The recorded Kp at 1 h for entry CCCC[C@](C)(CNC(C)=O)Nc1nc(N)nc2cc(CC)cnc12 [Compound X, reference compound] equals 6.9

###

# procedure summary: Pharmacokinetic study in male SD rats
# Type: in vivo
# assay conditions: rat, plasma, PO 50 mg/kg
# Protocol: Pharmacokinetic study: 6 healthy male SD rats (SPF grade) were divided into 2 groups and 3 rats/group. […] Within half an hour, plasma was taken after centrifugation (6000 rpm, 8 minutes, 4° C.) and frozen at −20° C. for later use. Experimental results: According to the obtained blood drug concentration data, the non-compartmental model of WinNonlin® 8.1 software (Certara, USA) was used to calculate the pharmacokinetic parameters after administration.
reported metric: Cmax (ng/mL)
Give bare numbers, in ng/mL.

The recorded Cmax for entry "CCCC[C@](C)(CNC(C)=O)Nc1nc(N)nc2cc(C(=O)N(C)C)cnc12" equals 1170

###

# procedure summary: Pharmacokinetic study in male SD rats
# Format: in vivo
# assay conditions: rat, plasma, PO 50 mg/kg
reported metric: bioavailability

The recorded bioavailability for entry "CCCC[C@](C)(CNC(C)=O)Nc1nc(N)nc2cc(C(=O)N(C)C)cnc12" equals 14.2%

###

# procedure summary: Pharmacokinetic study in male SD rats
# Assay type: in vivo
# assay conditions: rat, plasma, PO 50 mg/kg
# Procedure: Pharmacokinetic study: 6 healthy male SD rats (SPF grade) were divided into 2 groups and 3 rats/group. […] Within half an hour, plasma was taken after centrifugation (6000 rpm, 8 minutes, 4° C.) and frozen at −20° C. for later use. Experimental results: According to the obtained blood drug concentration data, the non-compartmental model of WinNonlin® 8.1 software (Certara, USA) was used to calculate the pharmacokinetic parameters after administration.
reported metric: Tmax (min)
Give bare numbers, in min.

The recorded Tmax for entry "CCCC[C@](C)(CNC(C)=O)Nc1nc(N)nc2cc(C(=O)N(C)C)cnc12" equals 25.2

###

# procedure summary: Pharmacokinetic study in male SD rats
# Format: in vivo
# assay conditions: rat, plasma, PO 50 mg/kg
reported metric: half-life (h)
Give bare numbers, in h.

The recorded half-life for entry CCCC[C@](C)(CNC(C)=O)Nc1nc(N)nc2cc(C(=O)N(C)C)cnc12 [Compound A] equals 5.75

###

# procedure summary: Pharmacokinetic study in male SD rats
# Type: in vivo
# assay conditions: rat, plasma, IV 5 mg/kg
reported metric: AUC(0-inf) (ng·h/mL)
Give bare numbers, in ng·h/mL.

The recorded AUC(0-inf) for entry CCCC[C@](C)(CNC(C)=O)Nc1nc(N)nc2cc(C(=O)N(C)C)cnc12 [Compound A] equals 877

###

# procedure summary: Pharmacokinetic study in male SD rats
# Assay type: in vivo
# assay conditions: rat, plasma, PO 50 mg/kg
reported metric: AUC(0-inf) (ng·h/mL)
Give bare numbers, in ng·h/mL.

The recorded AUC(0-inf) for entry "CCCC[C@](C)(CNC(C)=O)Nc1nc(N)nc2cc(C(=O)N(C)C)cnc12" equals 1260

###

# procedure summary: Pharmacokinetic study in male SD rats
# Format: in vivo
# assay conditions: rat, plasma, PO 50 mg/kg
reported metric: AUC(0-t) (ng·h/mL)
Numbers only, in ng·h/mL.

The recorded AUC(0-t) for entry CCCC[C@](C)(CNC(C)=O)Nc1nc(N)nc2cc(C(=O)N(C)C)cnc12 [Compound A] equals 1250

###

# procedure summary: Pharmacokinetic study in male SD rats
# Format: in vivo
# assay conditions: rat, plasma, PO 50 mg/kg
reported metric: MRT last (h)
Give bare numbers, in h.

The recorded MRT last for entry "CCCC[C@](C)(CNC(C)=O)Nc1nc(N)nc2cc(C(=O)N(C)C)cnc12" equals 1.93

###

# procedure summary: Pharmacokinetic study in male SD rats
# Type: in vivo
# assay conditions: rat, plasma, IV 5 mg/kg
reported metric: clearance (mL/min/kg)
Give bare numbers, in mL/min/kg.

The recorded clearance for entry "CCCC[C@](C)(CNC(C)=O)Nc1nc(N)nc2cc(C(=O)N(C)C)cnc12" equals 95

###

# procedure summary: Pharmacokinetic study in male SD rats
# Format: in vivo
# assay conditions: rat, plasma, IV 5 mg/kg
# Protocol: Pharmacokinetic study: 6 healthy male SD rats (SPF grade) were divided into 2 groups and 3 rats/group. […] Within half an hour, plasma was taken after centrifugation (6000 rpm, 8 minutes, 4° C.) and frozen at −20° C. for later use. Experimental results: According to the obtained blood drug concentration data, the non-compartmental model of WinNonlin® 8.1 software (Certara, USA) was used to calculate the pharmacokinetic parameters after administration.
reported metric: AUC(0-t) (ng·h/mL)
One number for each entry, in ng·h/mL.

The recorded AUC(0-t) for entry "CCCC[C@](C)(CNC(C)=O)Nc1nc(N)nc2cc(C(=O)N(C)C)cnc12" equals 876

###

# procedure summary: Pharmacokinetic study in male SD rats
# Format: in vivo
# assay conditions: rat, plasma, IV 5 mg/kg
reported metric: half-life (min)
Answers are plain numbers, in min.

The recorded half-life for entry CCCC[C@](C)(CNC(C)=O)Nc1nc(N)nc2cc(C(=O)N(C)C)cnc12 [Compound A] equals 40.8
